MEASUREMENT_TARGET: T1, CRF2R
T1 sequence (Q13324 whole entry, species assumed, looked up): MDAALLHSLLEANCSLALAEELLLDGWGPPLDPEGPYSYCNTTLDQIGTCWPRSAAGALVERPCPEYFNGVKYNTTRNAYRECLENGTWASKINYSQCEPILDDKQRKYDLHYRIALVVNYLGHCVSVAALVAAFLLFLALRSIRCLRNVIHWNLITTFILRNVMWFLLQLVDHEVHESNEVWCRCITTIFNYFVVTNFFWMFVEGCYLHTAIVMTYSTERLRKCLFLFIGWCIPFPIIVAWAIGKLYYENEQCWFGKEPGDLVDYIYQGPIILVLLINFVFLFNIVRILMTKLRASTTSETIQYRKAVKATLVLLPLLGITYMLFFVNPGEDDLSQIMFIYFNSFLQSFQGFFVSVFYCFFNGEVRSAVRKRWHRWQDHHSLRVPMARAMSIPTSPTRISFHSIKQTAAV
ASSAY_METHOD_TEXT: cell-based or functional assay
Ends that are not written are not given here.
ATTRIBUTE_MEASURED: CRF2R EC50 (nM)
Express it in nM; write the number only.

Item DNPSLSIDLPLQLLRTLLELEKTQSQRERAEQNAIIFASV-NH2 [SEQ ID NO 342] has what recorded CRF2R EC50?
20.2

Item ZGPPISIDVPYHLLRKVIEIEKQEKEKQQAANNARLLDTI (C-terminal amide) [SEQ ID NO 376] has what recorded CRF2R EC50?
52.5

Item ZGPPISIDLPFQLLRKAIEIEKQEKEKQQATTNARLLDRV (C-terminal amide) [SEQ ID NO 363] has what recorded CRF2R EC50?
25.1
